The origin of these recorded values is patent US20220332795A1.

Parameter: Apical domain, RLU. Scope: all listed entries.
# systemTested: T1, CD71 apical domain (UniProt P02786 189-383, limits assumed)
# T1 construct: domain: Apical domain
# T1 sequence (P02786 189-383 limits assumed): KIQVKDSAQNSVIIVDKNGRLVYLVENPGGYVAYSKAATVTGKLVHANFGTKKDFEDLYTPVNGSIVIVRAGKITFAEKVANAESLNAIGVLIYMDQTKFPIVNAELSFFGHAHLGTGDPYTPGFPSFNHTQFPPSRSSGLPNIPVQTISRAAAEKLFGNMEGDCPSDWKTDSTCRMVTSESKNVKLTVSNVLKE
# protocolDescription: solution ELISA
// units = RLU; emit number, no label

SEQ ID NO 105 (designed binder, FN3 domain) MLPAPKNLVVSRVTEDSARLSWTAPDAAFDSFYIAYAEPRPDGEAIFLVVPGSERSYDLTGLKPGTEYSVLIHGVKGGLLSSPLHANFTT; 6.79e+06
SEQ ID NO 186 (designed binder, FN3 domain) MLPAPKNLVVSRVTEDSARLSWTAPDAAFDSFYIAYAEPRPDGEAIQLGVPGSERSYDLTGLKPGTEYSVLIHGVKGGLLSSPLSAIFTT; 5.38e+06
SEQ ID NO 136 (designed binder, FN3 domain) MLPAPKNLVVSRVTEDSARLSWTAPDAAFDSFFIGYLEPQPPGEAIWLHVPGSERSYDLTGLKPGTEYNVTIQGVKGGFPSIPLIAIFTT; 4.77e+06

Read the next record carefully.
Name the reported Apical domain, RLU value associated with the binder SEQ ID NO 118 (designed binder, FN3 domain) MLPAPKNLVVSRVTEDSARLSWTAPDAAFDSFYIAYAEPRPDGEAIWLVVPGSERSYDLTGLKPGTEYSVLIHGVKGGLLSSPLVASFTT
6.58e+06
